METHOD_NOTES: folding stability dG unfold from chymotrypsin proteolysis; higher = more stable
Would you mind telling me the reported folding stability dG unfold of each entry?
// note: answer is a bare numeric in kcal/mol

The recorded folding stability dG unfold for SASNKPRTIEVPIMIPPDDLKEHSPEEFIDWIANELGLPPGKDIKIDVDIEPFEHDGRPYYIIPARIQVSAG [r14_334_TrROS] is -0.294

Lookup result for SAGGMKTFEKPMTAEEVMALLEEIAKKGNVNVTIETEGKTYEVDPSKAKPIPPENVTAKITITELPKSAGGS [r16_628_JUSTAS] ; measured folding stability dG unfold: -0.182

The measured folding stability dG unfold associated with SAGGEPVKFIPPGWKITLTTPDGRPLTFTLPANATPEDFKSLELPGDHELEFVEFLPDGTILVRSPKSAGGS [r16_103_TrMRF] reads 1.2

In plain terms, SAGGKTIMIMFTPDNAEEIAETIVDEFGYDVKIEKVQPMPMKDPDGKQKAPYYMIEIEIKVPDPGQPLSAGG [r13_943_TrROS] has a documented folding stability dG unfold of -0.282

So for SAGWDLKIEPEPNPDNGMRMINIEYEDPDGDGPYTVSIMYHNGKIKAVEVQDPNTGEPELTPEALEELFSAG [r5_872_TrROS] , the logged folding stability dG unfold turned out to be 0.14

Recorded folding stability dG unfold (sequence SAGPWNIMVYDNGEPLEMIEIKGDEITIPLPPGPVRIAIFNPDDNGFVEEEVTPEDGTIEMKIPKGAKISAG [r5_469_TrROS] ): 0.207

Summary for this sequence, SAHTWEIWFPPGLTPEEIQEKLKEEFPGYEIDVDVERDPEPGWYRIEVTMKDPQQRRRVQKKIREILQESAG [r14_443_TrROS] : folding stability dG unfold is 2.39

Data point: SAMEKPLETLEIPIPGLPVTVKITIYPSHIEKAKESGIPEITVEALLTIELPDGSKVEKKIPLTVKIPGSAG [r14_100_JUSTAS] ; folding stability dG unfold = 1.67

Per the records, this sequence ( SMTAEEIAERLARALEEAGIRRVEVEVTVEYDPETDEVTVTVTIRVEPAPEAPPEEEEERREREEREAEESA [r9_440_TrROS_Hall] ) has folding stability dG unfold equal to 2.43

Entry under test: SAGGSAGGSMSPEEAKKLAEELAKKLGLEKVEIVEIKVEVDEETNEIKVTIYIRGKDGKWYKLSAGGSAGGS [r12_508_TrROS_Hall] . Its folding stability dG unfold was 4.2

According to the records, this sequence SAGGSAMSLEELKKKKVKVKVKEIEVPKGAKIPDGKTVKEGEKILVVDGKVYLPNGKLIAEVEVEESAGGSA [r15_12_TrROS_Hall] displays folding stability dG unfold of -0.621

For SPLELPSDEEITVNAEVLILPYNPETGEIEDEIPIPLPVKIKVKKDGSVEIEIDIPDSIPENVPIVLLLKSA [r9_90_TrMRF] the sequence record lists folding stability dG unfold as 1.81

The reported folding stability dG unfold of the sequence SAGGSAGGSAGGMTVLETEVTTLPNGVVKTTTLYKDPSTGALHTVTEEVYVPLGETALLSAGGSAGGSAGGS [r10_72_JUSTAS] was 0.15

// folding stability dG unfold value for SPTQTITLTLPDRPVTVPLTAYPETGYVEITVTVTYPTGTKTYTFTVKAKSFEEVLAELSKLPEDFDINPSA [r9_713_TrMRF] : 1.81
